# Test system: TNFα
# protocolNotes: TNFα secretion by human white blood cells stimulated with PMA/ionomycin, synergy score
# Format: cell-based
# Design: key: S = Σ Idata(Idata−ILoewe) × ln dilution factors; volume over Loewe additivity
# testParameters: combination with Dexamethasone; PBMC stimulated with PMA/Ionomycin
# Procedure: A 100 μl suspension of diluted human white blood cells contained within each well of a polystyrene 384-well plate (NalgeNunc) was stimulated to secrete TNFα by treatment with a final concentration of 10 ng/mL phorbol 12-myristate 13-acetate (Sigma, P-1585) and 750 ng/mL ionomycin (Sigma, I-0634). […] After the plate was washed with 0.1% Tween 20/PBS, an HRP-luminescent substrate was added to each well and light intensity measured using a LJL Analyst plate luminometer. […]
measuredMetric: Synergy Score based on TNF-α inhibition

CN1CCC(=C2c3ccccc3C=Cc3ccccc32)CC1 : 1.3
CNCCC=C1c2ccccc2CCc2ccccc21 : 1.7
CN(C)CCC=C1c2ccccc2C=Cc2ccccc21 : 1.2
CNCCCN1c2ccccc2CCc2ccccc21 : 1.6
CN(C)CCCN1c2ccccc2CCc2ccc(Cl)cc21 : 1.2
Clc1ccc2c(c1)C(N1CCNCC1)=Nc1ccccc1O2 : 1.3
CN1CCC(=C2c3ccccc3CC(=O)c3sccc32)CC1 : 1.6
CN(C)CCC=C1c2ccccc2CCc2ccccc21 : 1.2
CNCCCC1c2ccccc2C=Cc2ccccc21 : 1.3
